Where do these numbers come from? They come from paper PMC10435442.

# Experiment Summary: in vitro
# Assay Context: human
Experimental Endpoint: viability at 48 h, 0.4 ug (%)
Express the result in % but write the number alone.

viability at 48 h, 0.4 ug measured on O=c1cc(CCl)c2ccc(O)cc2o1 [Compound 1, 4-chloromethyl-7-hydroxycoumarin] = 84

---

Answer each item with its documented pIC50.
# Target Or System: EGFR (Homo sapiens)
# Experiment Summary: In vitro EGFR enzyme inhibition assay (ELISA)
# Assay Context: EGFR inhibition IC50
Keep it numeric: pIC50 is minus log10 of the concentration in mol/L.

pIC50 measured on `O=C(COc1ccc2c(CCl)cc(=O)oc2c1)c1ccccc1` = 6.50

pIC50 measured on `COc1ccccc1C(=O)OCc1cc(=O)oc2cc(OCC(=O)c3ccc(Cl)cc3)ccc12` = 6.75

pIC50 measured on `COc1ccccc1C(=O)OCc1cc(=O)oc2cc(OCC(=O)c3ccccc3)ccc12` = 5.74

pIC50 measured on `CC(=O)Oc1ccc2c(COC(=O)c3ccc(Cl)cc3)cc(=O)oc2c1` = 5.61

---

# Experiment Summary: in vitro
# Assay Context: human
Experimental Endpoint: viability at 48 h, 1.6 ug (%)
Express the result in % but write the number alone.

viability at 48 h, 1.6 ug measured on O=c1cc(CCl)c2ccc(O)cc2o1 [Compound 1, 4-chloromethyl-7-hydroxycoumarin] = 75.6

---

# Test system: MCF-7
# Experiment Summary: MTT cytotoxicity assay, MCF-7
# Assay Context: MCF7, 1.6ug
Using % viability as the sorting value, the categories are c1 (below 60%), c2 (60% to below 70%), c3 (70% or more)

For this compound, which bin applies? `O=C(OCc1cc(=O)oc2cc(O)ccc12)c1ccc(Cl)cc1`
c2

For this compound, which bin applies? `COc1ccccc1C(=O)OCc1cc(=O)oc2cc(OCC(=O)c3ccc(Cl)cc3)ccc12`
c1

For this compound, which bin applies? `COc1ccccc1C(=O)OCc1cc(=O)oc2cc(OCC(=O)c3ccccc3)ccc12`
c3

For this compound, which bin applies? `O=C(OCc1cc(=O)oc2cc(O)ccc12)c1ccccc1`
c1

For this compound, which bin applies? COc1cccc2c1C(=O)c1c(O)c3c(c(O)c1C2=O)C[C@@](O)(C(=O)CO)C[C@@H]3O[C@H]1C[C@H](N)[C@H](O)[C@H](C)O1 [Doxorubicin, reference compound]
c1

For this compound, which bin applies? `O=C(COc1ccc2c(CCl)cc(=O)oc2c1)c1ccccc1`
c2

For this compound, which bin applies? `O=C(COc1ccc2c(CCl)cc(=O)oc2c1)c1ccc(Cl)cc1`
c3

For this compound, which bin applies? `O=C(COc1ccc2c(COC(=O)c3ccccc3)cc(=O)oc2c1)c1ccc(Cl)cc1`
c1

For this compound, which bin applies? `CC(=O)Oc1ccc2c(COC(=O)c3ccc(Cl)cc3)cc(=O)oc2c1`
c3

For this compound, which bin applies? `O=C(COc1ccc2c(COC(=O)c3ccc(Cl)cc3)cc(=O)oc2c1)c1ccc(Cl)cc1`
c3

---

# Target Or System: EGFR (Homo sapiens)
# Experiment Summary: In vitro EGFR enzyme inhibition assay (ELISA)
# Assay Context: EGFR IC50, lab report 01-11-2021, 10 compounds
Lab note - cut at 400 nM for IC50: Met if strictly below, Not met if not.

Please determine if `O=C(COc1ccc2c(COC(=O)c3ccc(Cl)cc3)cc(=O)oc2c1)c1ccccc1` is below 400 nM in terms of IC50.
Met

Please determine if `O=C(COc1ccc2c(CCl)cc(=O)oc2c1)c1ccc(Cl)cc1` is below 400 nM in terms of IC50.
Met

Please determine if `O=C(OCc1cc(=O)oc2cc(O)ccc12)c1ccc(Cl)cc1` is below 400 nM in terms of IC50.
Not met

Please determine if `O=C(OCc1cc(=O)oc2cc(O)ccc12)c1ccccc1` is below 400 nM in terms of IC50.
Not met

Please determine if `COc1ccccc1C(=O)OCc1cc(=O)oc2cc(O)ccc12` is below 400 nM in terms of IC50.
Not met

Please determine if `CC(=O)Oc1ccc2c(COC(=O)c3ccccc3)cc(=O)oc2c1` is below 400 nM in terms of IC50.
Met

Please determine if `O=C(COc1ccc2c(COC(=O)c3ccccc3)cc(=O)oc2c1)c1ccccc1` is below 400 nM in terms of IC50.
Met

Please determine if `O=C(COc1ccc2c(COC(=O)c3ccc(Cl)cc3)cc(=O)oc2c1)c1ccc(Cl)cc1` is below 400 nM in terms of IC50.
Met

Please determine if `O=C(COc1ccc2c(COC(=O)c3ccccc3)cc(=O)oc2c1)c1ccc(Cl)cc1` is below 400 nM in terms of IC50.
Not met

---

Answer each item with its documented EGFR %inh.
# Target Or System: EGFR (Homo sapiens)
# Experiment Summary: In vitro EGFR enzyme inhibition assay (ELISA)
# Assay Context: conc 0.01 (unit not given); lab report 01-11-2021
Express the result in % but write the number alone.

EGFR %inh measured on `O=C(OCc1cc(=O)oc2cc(O)ccc12)c1ccccc1` = 20

EGFR %inh measured on `O=C(OCc1cc(=O)oc2cc(O)ccc12)c1ccc(Cl)cc1` = 17

EGFR %inh measured on `COc1ccccc1C(=O)OCc1cc(=O)oc2cc(O)ccc12` = 25

EGFR %inh measured on `O=C(COc1ccc2c(CCl)cc(=O)oc2c1)c1ccc(Cl)cc1` = 34

EGFR %inh measured on `O=C(COc1ccc2c(COC(=O)c3ccccc3)cc(=O)oc2c1)c1ccccc1` = 30

---

# System: MCF-7
# Experiment Summary: MTT cytotoxicity assay, MCF-7
# Assay Context: MCF7, 6.3ug
Answer each item with its documented % viability.
Express the result in % but write the number alone.

% viability measured on `COc1ccccc1C(=O)OCc1cc(=O)oc2cc(O)ccc12` = 49.509

% viability measured on `COc1ccccc1C(=O)OCc1cc(=O)oc2cc(OCC(=O)c3ccc(Cl)cc3)ccc12` = 50.147

% viability measured on `COc1ccccc1C(=O)OCc1cc(=O)oc2cc(OC(C)=O)ccc12` = 50.063

% viability measured on `CC(=O)Oc1ccc2c(COC(=O)c3ccc(Cl)cc3)cc(=O)oc2c1` = 66.961

% viability measured on `O=C(COc1ccc2c(COC(=O)c3ccc(Cl)cc3)cc(=O)oc2c1)c1ccccc1` = 62.232

% viability measured on `O=C(COc1ccc2c(COC(=O)c3ccc(Cl)cc3)cc(=O)oc2c1)c1ccc(Cl)cc1` = 64.521

% viability measured on `O=C(COc1ccc2c(CCl)cc(=O)oc2c1)c1ccc(Cl)cc1` = 71.906

---

# Target Or System: EGFR (Homo sapiens, UniProt P00533)
# Sequence (P00533 25-1210): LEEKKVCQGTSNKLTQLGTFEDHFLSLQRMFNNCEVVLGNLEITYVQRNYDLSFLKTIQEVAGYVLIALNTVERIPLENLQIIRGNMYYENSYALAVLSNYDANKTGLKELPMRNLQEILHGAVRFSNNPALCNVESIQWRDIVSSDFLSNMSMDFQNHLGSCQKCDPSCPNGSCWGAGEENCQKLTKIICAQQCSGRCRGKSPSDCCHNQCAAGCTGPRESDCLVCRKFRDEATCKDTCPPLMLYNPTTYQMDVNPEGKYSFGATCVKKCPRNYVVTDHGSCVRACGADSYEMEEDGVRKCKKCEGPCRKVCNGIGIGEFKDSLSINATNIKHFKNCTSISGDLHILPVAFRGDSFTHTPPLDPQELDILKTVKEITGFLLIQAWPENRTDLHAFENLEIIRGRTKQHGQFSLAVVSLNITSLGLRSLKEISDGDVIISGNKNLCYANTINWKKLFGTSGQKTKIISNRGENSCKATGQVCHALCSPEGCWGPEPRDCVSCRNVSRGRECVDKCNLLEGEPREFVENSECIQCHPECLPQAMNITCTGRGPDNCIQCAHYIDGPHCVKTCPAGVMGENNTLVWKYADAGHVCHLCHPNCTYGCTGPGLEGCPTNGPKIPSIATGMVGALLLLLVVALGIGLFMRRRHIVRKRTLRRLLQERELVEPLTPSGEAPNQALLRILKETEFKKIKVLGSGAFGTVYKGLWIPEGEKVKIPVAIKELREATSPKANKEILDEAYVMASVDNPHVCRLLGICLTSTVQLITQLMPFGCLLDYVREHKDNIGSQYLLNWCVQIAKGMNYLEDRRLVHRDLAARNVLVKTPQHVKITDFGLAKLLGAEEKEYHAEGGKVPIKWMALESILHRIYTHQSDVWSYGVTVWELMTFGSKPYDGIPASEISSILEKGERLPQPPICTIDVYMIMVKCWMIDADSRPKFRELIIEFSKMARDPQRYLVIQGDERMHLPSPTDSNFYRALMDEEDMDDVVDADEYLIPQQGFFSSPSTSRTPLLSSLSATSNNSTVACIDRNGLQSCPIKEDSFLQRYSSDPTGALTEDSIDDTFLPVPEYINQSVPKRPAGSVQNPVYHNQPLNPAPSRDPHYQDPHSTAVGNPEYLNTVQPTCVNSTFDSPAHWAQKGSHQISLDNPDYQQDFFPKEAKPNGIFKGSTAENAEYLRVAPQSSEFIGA
# Experiment Summary: In vitro EGFR enzyme inhibition assay (ELISA)
# Assay Context: conc 10 (unit not given); lab report 01-11-2021
Answer each item with its documented EGFR %inh.

EGFR %inh measured on COc1ccccc1C(=O)OCc1cc(=O)oc2cc(O)ccc12 [Compound 4] = 87%

EGFR %inh measured on O=C(OCc1cc(=O)oc2cc(O)ccc12)c1ccc(Cl)cc1 [Compound 3] = 85%

EGFR %inh measured on O=C(COc1ccc2c(CCl)cc(=O)oc2c1)c1ccc(Cl)cc1 [Compound 6] = 91%

EGFR %inh measured on O=C(COc1ccc2c(COC(=O)c3ccccc3)cc(=O)oc2c1)c1ccccc1 [Compound 7] = 89%

EGFR %inh measured on O=C(COc1ccc2c(COC(=O)c3ccccc3)cc(=O)oc2c1)c1ccc(Cl)cc1 [Compound 8] = 83%

---

# Test system: MCF-7
# Experiment Summary: MTT cytotoxicity assay, MCF-7
# Assay Context: MCF7, 1.6ug
Answer each item with its documented % viability.
Express the result in % but write the number alone.

% viability measured on `COc1ccccc1C(=O)OCc1cc(=O)oc2cc(O)ccc12` = 58.612

% viability measured on `COc1ccccc1C(=O)OCc1cc(=O)oc2cc(OC(C)=O)ccc12` = 58.26

% viability measured on `CC(=O)Oc1ccc2c(COC(=O)c3ccccc3)cc(=O)oc2c1` = 70.97

% viability measured on `O=C(COc1ccc2c(COC(=O)c3ccc(Cl)cc3)cc(=O)oc2c1)c1ccccc1` = 70.74

% viability measured on `O=C(COc1ccc2c(COC(=O)c3ccccc3)cc(=O)oc2c1)c1ccccc1` = 71.93
